tested on: 439559-082-T-J2-PDC complex spheroid growth; assay: Anticancer human tumor 439559-082-T-J2-PDC patient-derived colon adenocarcinoma cell line growth inhibition [Asc]; conditions: second compound 1 µM; first compound 0.0949 µM; stronger effect = lower value
ASSAY_READOUT: viability, T/C (%)
Number only, in %; omit the unit.

The following compounds have reported results that may help.
COMPOUND	UNIT_ABBREV	viability, T/C
CCN1C(C(=O)NC23CCC(C(=O)O)(CC2)CC3)C(c2cccc(Cl)c2F)C2(C(=O)Nc3cc(Cl)ccc32)C12CCCCC2 (stereo unspecified) + Cc1c(S(C)(=O)=O)c(-c2cc(F)cc(N3CCN(c4ccc(NS(=O)(=O)c5ccc(NC(CCN6CCC(C(=O)OCCCP(=O)(O)O)CC6)CSc6ccccc6)c(S(=O)(=O)C(F)(F)F)c5)cc4)CC3)c2)c(-c2ccc(Cl)cc2)n1C(C)C	%	99.7
CCN1C(C(=O)NC23CCC(C(=O)O)(CC2)CC3)C(c2cccc(Cl)c2F)C2(C(=O)Nc3cc(Cl)ccc32)C12CCCCC2 (stereo unspecified) + CNC(C)C(=O)NC1CN(S(=O)(=O)c2cccc(S(=O)(=O)N3CCC4CCC(C(=O)NC(c5ccccc5)c5ccccc5)N4C(=O)C(NC(=O)C(C)NC)C3)c2)CCC2CCC(C(=O)NC(c3ccccc3)c3ccccc3)N2C1=O	%	76.8
Cc1nc(N2CCC3(CC2)COC(C)C3N)c(CO)nc1Sc1ccnc(N)c1Cl (stereo unspecified) + Cc1c(S(C)(=O)=O)c(-c2cc(F)cc(N3CCN(c4ccc(NS(=O)(=O)c5ccc(NC(CCN6CCC(C(=O)OCCCP(=O)(O)O)CC6)CSc6ccccc6)c(S(=O)(=O)C(F)(F)F)c5)cc4)CC3)c2)c(-c2ccc(Cl)cc2)n1C(C)C	%	98.2

So what's the measured viability, T/C for this one? NC(=O)C(=Cn1cnc(-c2cc(C(F)(F)F)cc(C(F)(F)F)c2)n1)c1cncnc1 + CNC(C)C(=O)NC1CN(S(=O)(=O)c2cccc(S(=O)(=O)N3CCC4CCC(C(=O)NC(c5ccccc5)c5ccccc5)N4C(=O)C(NC(=O)C(C)NC)C3)c2)CCC2CCC(C(=O)NC(c3ccccc3)c3ccccc3)N2C1=O
88.7

What do you get for NC(=O)C(=Cn1cnc(-c2cc(C(F)(F)F)cc(C(F)(F)F)c2)n1)c1cncnc1 + Cc1c(S(C)(=O)=O)c(-c2cc(F)cc(N3CCN(c4ccc(NS(=O)(=O)c5ccc(NC(CCN6CCC(C(=O)OCCCP(=O)(O)O)CC6)CSc6ccccc6)c(S(=O)(=O)C(F)(F)F)c5)cc4)CC3)c2)c(-c2ccc(Cl)cc2)n1C(C)C ?
75.7

Do the same for Cc1nc(N2CCC3(CC2)COC(C)C3N)c(CO)nc1Sc1ccnc(N)c1Cl (stereo unspecified) + CNC(C)C(=O)NC1CN(S(=O)(=O)c2cccc(S(=O)(=O)N3CCC4CCC(C(=O)NC(c5ccccc5)c5ccccc5)N4C(=O)C(NC(=O)C(C)NC)C3)c2)CCC2CCC(C(=O)NC(c3ccccc3)c3ccccc3)N2C1=O please
69.3

----------
Reported viability, T/C is given for each of the following molecules.
tested on: 439559-082-T-J2-PDC complex spheroid growth; assay: Anticancer human tumor 439559-082-T-J2-PDC cell line growth inhibition [Asc]; conditions: second compound 0.316 µM; first compound 0.00316 µM; stronger effect = lower value;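 note: spheroids exposed to agents for 7 days starting day 3 after seeding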;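 for viability, T/C: percent of DMSO vehicle control viability with 100% = vehicle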
Output spec: scalar in %, unitless text.

MOLECULE	ASSAYED_SYSTEM	NUMBER
O=C(c1ccc(F)c(F)c1Nc1ccc(I)cc1F)N1CC(O)([C@@H]2CCCCN2)C1 + Cc1c(S(C)(=O)=O)c(-c2cc(F)cc(N3CCN(c4ccc(NS(=O)(=O)c5ccc(NC(CCN6CCC(C(=O)OCCCP(=O)(O)O)CC6)CSc6ccccc6)c(S(=O)(=O)C(F)(F)F)c5)cc4)CC3)c2)c(-c2ccc(Cl)cc2)n1C(C)C	439559-082-T-J2-PDC complex spheroid growth	96
NC1CCC(NC2CC2c2ccccc2)CC1 (configuration not stated) + Cc1c(S(C)(=O)=O)c(-c2cc(F)cc(N3CCN(c4ccc(NS(=O)(=O)c5ccc(NC(CCN6CCC(C(=O)OCCCP(=O)(O)O)CC6)CSc6ccccc6)c(S(=O)(=O)C(F)(F)F)c5)cc4)CC3)c2)c(-c2ccc(Cl)cc2)n1C(C)C	439559-082-T-J2-PDC complex spheroid growth	104
COc1c(OCCCN2CCOCC2)ccc2c3n(c(=NC(=O)c4cnc(N)nc4)nc12)CCN3 + CNC(C)C(=O)NC1CN(S(=O)(=O)c2cccc(S(=O)(=O)N3CCC4CCC(C(=O)NC(c5ccccc5)c5ccccc5)N4C(=O)C(NC(=O)C(C)NC)C3)c2)CCC2CCC(C(=O)NC(c3ccccc3)c3ccccc3)N2C1=O	439559-082-T-J2-PDC complex spheroid growth	94.9
CCN1CCN(Cc2ccc(Nc3ncc(F)c(-c4cc(F)c5nc(C)n(C(C)C)c5c4)n3)nc2)CC1 + Cc1c(S(C)(=O)=O)c(-c2cc(F)cc(N3CCN(c4ccc(NS(=O)(=O)c5ccc(NC(CCN6CCC(C(=O)OCCCP(=O)(O)O)CC6)CSc6ccccc6)c(S(=O)(=O)C(F)(F)F)c5)cc4)CC3)c2)c(-c2ccc(Cl)cc2)n1C(C)C	439559-082-T-J2-PDC complex spheroid growth	101
Cn1ncnc1[C@H]1c2n[nH]c(=O)c3cc(F)cc(c23)N[C@@H]1c1ccc(F)cc1 + Cc1c(S(C)(=O)=O)c(-c2cc(F)cc(N3CCN(c4ccc(NS(=O)(=O)c5ccc(NC(CCN6CCC(C(=O)OCCCP(=O)(O)O)CC6)CSc6ccccc6)c(S(=O)(=O)C(F)(F)F)c5)cc4)CC3)c2)c(-c2ccc(Cl)cc2)n1C(C)C	439559-082-T-J2-PDC complex spheroid growth	102
O=C(c1ccc(F)c(F)c1Nc1ccc(I)cc1F)N1CC(O)([C@@H]2CCCCN2)C1 + CNC(C)C(=O)NC1CN(S(=O)(=O)c2cccc(S(=O)(=O)N3CCC4CCC(C(=O)NC(c5ccccc5)c5ccccc5)N4C(=O)C(NC(=O)C(C)NC)C3)c2)CCC2CCC(C(=O)NC(c3ccccc3)c3ccccc3)N2C1=O	439559-082-T-J2-PDC complex spheroid growth	89.8

So what's the measured viability, T/C for this one? COc1c(OCCCN2CCOCC2)ccc2c3n(c(=NC(=O)c4cnc(N)nc4)nc12)CCN3 + Cc1c(S(C)(=O)=O)c(-c2cc(F)cc(N3CCN(c4ccc(NS(=O)(=O)c5ccc(NC(CCN6CCC(C(=O)OCCCP(=O)(O)O)CC6)CSc6ccccc6)c(S(=O)(=O)C(F)(F)F)c5)cc4)CC3)c2)c(-c2ccc(Cl)cc2)n1C(C)C
95.9

----------
System: 439559-082-T-J2-PDC complex spheroid growth
Test: Anticancer human tumor 439559-082-T-J2-PDC cell line growth inhibition [Asc];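 note: spheroids exposed to agents for 7 days starting day 3 after seeding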
Details: compound alone; run of 11/15/2022
Excerpt: Multicellular complex tumor spheroid response to apoptosis pathway targeting inhibitors Alrizomadlin, Pelcitoclax, and Dasminapant in combination with a variety of drugs and investigational agents in selected tumor cell lines […] Compounds. […] If the clinical Cmax for an agent had not been determined, the highest concentration tested was 10 microM. […]
pIC50: −log10 of the molar value.
ASSAY_READOUT: pIC50

Entry CNC(C)C(=O)NC1CN(S(=O)(=O)c2cccc(S(=O)(=O)N3CCC4CCC(C(=O)NC(c5ccccc5)c5ccccc5)N4C(=O)C(NC(=O)C(C)NC)C3)c2)CCC2CCC(C(=O)NC(c3ccccc3)c3ccccc3)N2C1=O (stereo unspecified) , system 439559-082-T-J2-PDC complex spheroid growth: what pIC50 was measured?
< 6.00

----------
test system: 439559-082-T-J2-PDC complex spheroid growth; assay: Anticancer human tumor 439559-082-T-J2-PDC cell line growth inhibition [Asc]; conditions: second compound 0.316 µM; first compound 0.3 µM; stronger effect = lower value;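 note: spheroids exposed to agents for 7 days starting day 3 after seeding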;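 for viability, T/C: percent of DMSO vehicle control viability with 100% = vehicle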
ASSAY_READOUT: viability, T/C (%)
Numbers only here, please. The scale is %.

COMPOUND	UNIT_ABBREV	viability, T/C
NC(=O)C(=Cn1cnc(-c2cc(C(F)(F)F)cc(C(F)(F)F)c2)n1)c1cncnc1 + CNC(C)C(=O)NC1CN(S(=O)(=O)c2cccc(S(=O)(=O)N3CCC4CCC(C(=O)NC(c5ccccc5)c5ccccc5)N4C(=O)C(NC(=O)C(C)NC)C3)c2)CCC2CCC(C(=O)NC(c3ccccc3)c3ccccc3)N2C1=O	%	82.8

Record Cc1nc(N2CCC3(CC2)COC(C)C3N)c(CO)nc1Sc1ccnc(N)c1Cl (stereo not drawn) + Cc1c(S(C)(=O)=O)c(-c2cc(F)cc(N3CCN(c4ccc(NS(=O)(=O)c5ccc(NC(CCN6CCC(C(=O)OCCCP(=O)(O)O)CC6)CSc6ccccc6)c(S(=O)(=O)C(F)(F)F)c5)cc4)CC3)c2)c(-c2ccc(Cl)cc2)n1C(C)C : what is its viability, T/C with 439559-082-T-J2-PDC complex spheroid growth?
84.5

Next entry: CCN1C(C(=O)NC23CCC(C(=O)O)(CC2)CC3)C(c2cccc(Cl)c2F)C2(C(=O)Nc3cc(Cl)ccc32)C12CCCCC2 (stereo not drawn) + CNC(C)C(=O)NC1CN(S(=O)(=O)c2cccc(S(=O)(=O)N3CCC4CCC(C(=O)NC(c5ccccc5)c5ccccc5)N4C(=O)C(NC(=O)C(C)NC)C3)c2)CCC2CCC(C(=O)NC(c3ccccc3)c3ccccc3)N2C1=O
85.3

Origin of the recorded values: PubChem BioAssay AID1963423
